System: SNB-19 CNS
protocol.notes: NCI-60 one-dose screen, 48 h (100 = growth as untreated, 0 = no growth, -100 = all killed)
condition.parameters: 10 µM unless noted
This is part of a sample that, as a whole, favours compounds with a hit. Of some 83,000 tested, about 20% had one in any assay.
reported.metric: growth (%)
// return numeric value only (unit: %, not printed)

// growth lookup, key: `Fc1ccc(-c2cc3nc(C(Cl)Cl)nc(-c4cccs4)n3n2)cc1` 9.61

// lookup growth for `COc1ccc2c(C3=C(c4c[nH]c5ccccc45)C(=O)N(O)C3=O)coc2c1` 95.1

Look up growth: `COc1cnc2c(c1)C(=O)c1c-2n(CCCNCC2CC2)c(=O)c2cc(F)ccc12` 4.94

State the recorded growth for this entry: `CCCCSc1nnc(-c2ccc(-c3ccc(Cl)cc3)nc2C)o1` 97.8

So what's the measured growth for this one? `COc1ccc(-c2nc(SCCC(C)C)nc(N/N=C\c3ccc(O)cc3)c2C#N)cc1` 60.1

Given the molecule `c1ccc(-c2c(-c3ccccc3)[n+](Cc3ccc4ccccc4c3)c(-c3ccccc3)n2Cc2ccc3ccccc3c2)cc1` , what is its reported growth? -94.9

Entry `Oc1ccc(CSc2nnc(-c3ccncc3)n2-c2ccccc2)c2cccnc12` : reported growth = ? 12.7

Please look up its growth: `O=S(=O)(Nc1ccc2c(c1)OC(F)(F)O2)c1ccc(-c2cnc(C3CC3)o2)cc1` 47

Would you kindly share the measured growth for `O=C(Nc1cccc(Cl)c1)Nc1nc2ccc([N+](=O)[O-])cc2s1` ? 21.2

Would you kindly share the measured growth for `CCOC(=O)c1ccc(N/C=C/C(=O)c2ccccc2)cc1` ? 92.1

###

Tested on: RXF 393 renal
protocol.notes: NCI-60 one-dose screen, 48 h (100 = growth as untreated, 0 = no growth, -100 = all killed)
condition.parameters: 10 µM unless noted
This is part of a sample that, as a whole, favours compounds with a hit. Of some 83,000 tested, about 20% had one in any assay. The source made the active and inactive calls. The calls were made as follows: active = growth percent below 10; inactive = the rest.
reported.metric: growth

Need growth, item `C#C[C@]1(O)CC[C@H]2[C@@H]3CC=C4c5sc(Nc6ccncc6)nc5CC[C@]4(C)[C@H]3CC[C@@]21C` -62.9% (active)

Entry `O=C(NCCNc1cc(-c2cn(-c3ccccc3)nc2-c2cccc(O)c2)ccn1)Nc1ccc(Cl)c(C(F)(F)F)c1` has what growth? 15.3% (inactive)

Report growth for `COc1ccc(-c2ccnc3c(C#N)c(Nc4ccccc4)nn23)cc1OC` please. 15.8% (inactive)

Would you kindly share the measured growth for `O=S(=O)(Nc1ccc(I)c(Cl)c1)c1ccc(-c2cnc(C3CC3)o2)cc1` ? 2.46% (active)

Can you share its growth? I mean this compound: `O=C1/C(=C/c2ccc([N+](=O)[O-])cc2)SC(=Nc2ccccc2)N1Nc1ccccc1` 58.9% (inactive)

What measured growth goes with `COc1cc(/C=N/n2cnc3oc(-c4ccccc4)cc3c2=N)cc(CN2CCCCC2)c1O` ? -66.7% (active)

Any idea what growth was measured for `COc1ccc(C(=O)c2c(N)c(C#N)cn2-c2cccc(OC)c2)cc1` ? 17.3% (inactive)

Find the recorded growth belonging to `Clc1ccc(-c2nc3ccc(/C(=N\N=C\c4ccccc4)c4ccccc4)cc3[nH]2)cc1` and report it. 90.1% (inactive)

If you can, please state the reported growth value of NC(N)=NS(=O)(=O)c1ccc(N=NC2C(=O)NN(c3ccccc3)C2=O)cc1 (stereo not drawn) . 106% (inactive)

Query: growth; subject: CCOC(=O)/C(F)=C/C1CC1CCc1cccc(C(F)(F)F)c1 (stereo not drawn) 129% (inactive)

Using the record for `O=C1[C@@H]2Cc3c([nH]c4ccccc34)[C@H](c3c(Cl)cccc3Cl)N2C(=O)CN1C1CCN(Cc2c(F)cccc2F)CC1` , report its growth. 65.4% (inactive)

For the compound `CN1CCN(c2nc(-c3cnc4ccccc4n3)cc3ccccc23)CC1` , what growth is on record? 23.9% (inactive)

# growth lookup, item `O=C1c2c(O)cc(O)cc2O[C@@H](c2ccc(O)cc2)[C@@H]1c1c(O)cc(O)c2c(=O)cc(-c3ccc(O)c(O)c3)oc12` 112% (inactive)

Bench note: what growth did `COCCOc1ccc(-c2csc(NC(=O)CN3CCN(CCO)CC3)n2)cc1NS(=O)(=O)c1cccc2c(N(C)C)cccc12` show? 65.1% (inactive)

// lookup growth for `ClC(Cl)c1nc(-c2cccs2)n2nc(-c3ccccc3)cc2n1` -73.2% (active)

Sample `Nc1ccc(-c2nnc(SCc3ccc(O)c4ncccc34)o2)cc1` — what was its growth? -14.8% (active)

What measured growth goes with `COc1ccc([C@H]2[C@H](O)C(=O)N2c2cc(OC)c(OC)c(OC)c2)cc1Cl` ? 24.3% (inactive)

Field request: growth | item: `COc1ccc(OC)c([C@H]2c3[nH]c4ccccc4c3C[C@H]3C(=O)N(CCCCCCC(=O)NO)CC(=O)N23)c1` 107% (inactive)

###

System: K-562 leukemia
protocol.notes: NCI-60 one-dose screen, 48 h (100 = growth as untreated, 0 = no growth, -100 = all killed)
condition.parameters: 10 µM unless noted
This is part of a sample that, as a whole, favours compounds with a hit. Of some 83,000 tested, about 20% had one in any assay.
Assign growth to each entry below.
Answer with a number only, understood to be in %.

Any idea what growth was measured for `O=C1Nc2cc(OC(F)(F)F)ccc2Oc2ccc(-c3ccnc(N4CCNCC4)c3)cc21` ? -11.4

Which measured growth value corresponds to `CS(=O)(=O)c1nccc(-c2c(-c3ccc(F)c(OCc4ccccc4)c3)nc3sccn23)n1` ? 75.9

Look up growth for this compound: `COc1ccc(OC)c([C@H]2c3[nH]c4ccccc4c3C[C@H]3C(=O)N(CCCCCCC(=O)NO)CC(=O)N23)c1` 54.2

I am curious: what growth value has been reported for `O=S(=O)(Nc1cc(Cl)cc(Cl)c1)c1ccc(-c2cnc(C3CC3)o2)cc1` ? 14.4

What value of growth has been reported for the following compound? `Oc1ccc(CSc2nnc(-c3ccncc3)o2)c2cccnc12` 14.7

For the compound shown here, `C#C[C@]1(O)CC[C@H]2[C@@H]3CC=C4c5sc(Nc6cccc(C)n6)nc5CC[C@]4(C)[C@H]3CC[C@@]21C` , give the reported growth. -10.9

If you can, please state the reported growth value of CC(=O)c1ccc(NC(=O)COc2ccc(C3SCC(=O)N3c3ccc(Br)cc3)cc2)cc1 (stereo not drawn) . 90.8

Looking for the measured growth of CC1(C)CC[C@]2(C(=O)O)CC[C@]3(C)C(=CCC4[C@@]5(C)C[C@@H](O)[C@@H]6OC(c7ccccc7O)OC[C@@]6(C)C5CC[C@]43C)C2C1 (stereo partly drawn) , can you help? 40.6

###

Test system: SN12C renal
protocol.notes: NCI-60 one-dose screen, 48 h
condition.parameters: 10 µM unless noted
The panel holds about 83,000 compounds, 20% with a hit somewhere; the sample as a whole holds those more often. Activity calls are given as the source filed them. How the source made its calls: active means growth percent below 10; inactive means the rest.
Answer with one of the outcomes active, inactive

Kindly provide the recorded test outcome for the following compound: `O=C1[C@H]2Cc3c([nH]c4ccccc34)[C@@H](c3c(Cl)cccc3Cl)N2C(=O)CN1C1CCN(Cc2ccccc2)CC1` inactive

For `COc1cc2cc(Oc3ccc(NC(=O)c4cccc(C(F)(F)F)c4)cc3)c(C)nc2cc1OCCN(C)C` , what call appears in the results of this test? inactive

Fill in: this test's call for `C(=C(\C1=NCCN1)n1cnc2ccccc21)/c1cccc2ccccc12` is ___ inactive

Tell me the recorded outcome of this test for `Cn1ccnc1C(=O)/C=C/c1ccc(C(=O)Nc2ccc(NC(=O)CCNC(=O)c3csc(Br)n3)cc2)cc1` . inactive

Could you kindly confirm the outcome this assay logged for `O=c1[nH]c2cc(Cl)ccc2n1C1CCN(c2ccc3nnc(Cl)n3n2)CC1` ? inactive

Which outcome did this test record for the compound `O=C(/C=C1\C=CN(CCCCO)c2ccccc21)n1ccc2ccccc21` ? inactive

GET /call?item= `CC[C@H](C)[C@H]1NC(=O)[C@@H]([C@H](O)C(C)C)NC(=O)[C@@H](C)N(C)C(=O)[C@H](C)N(C)C(=O)[C@H](CC(C)C)NC(=O)[C@H](CC(C)C)N(C)C(=O)[C@H](C)N(C)C1=O` returns the recorded outcome of this test. active

Please let me know the test result on file for `CCN1CCN(Cc2ccc(C(=O)Nc3nc4ccc(Oc5ccnc(C(=O)NC)c5)cc4s3)cc2C(F)(F)F)CC1` . inactive

What was the test verdict on `COc1ccc(OC)c([C@H]2c3[nH]c4ccccc4c3C[C@H]3C(=O)N(CCCCCCC(=O)NO)CC(=O)N23)c1` ? inactive

# lookup: test call for `Cc1cc(=O)n2nc(-c3c[nH]c4ccccc34)sc2n1` inactive

// param item: `CC1(C)CC[C@]2(C(=O)N3CCCNCC3)CC[C@]3(C)C(=CC[C@@H]4[C@@]5(C)CCC(=O)C(C)(C)[C@@H]5CC[C@]43C)[C@H]2C1` ; yields the recorded call inactive

What did this assay record as the result for `Cn1c2ccccc2c2c3c(c4c5ccc(Br)cc5oc4c21)C(=O)N(O)C3=O` ? inactive

Returns: the outcome recorded for `N/C(=N\OC(=O)CSc1nc2ccccc2s1)c1ccc2ccccc2c1` in this assay. inactive

Look up the recorded call for `CC[C@@](C)(NC(=O)C(C)(C)NC(=O)[C@@H](NC(=O)[C@@H]1CCCN1C(=O)C(C)(C)NC(=O)[C@H](CC(C)C)NC(=O)CNC(=O)C(C)(C)NC(=O)[C@@H](NC(=O)C(C)(C)NC(=O)[C@H](CCC(N)=O)NC(=O)[C@H](C)NC(=O)C(C)(C)NC(=O)[C@H](C)NC(=O)C(C)(C)NC(=O)[C@H](C)NC(=O)C(C)(C)NC(C)=O)C(C)C)C(C)C)C(=O)N[C@@H](CCC(N)=O)C(=O)N[C@@H](CCC(N)=O)C(=O)N[C@H](CO)CC1CCCCC1` in this test. active

Status in this test for `N/C(=N\c1nc2ccc([N+](=O)[O-])cc2s1)C(Cl)(Cl)Cl` ? inactive

// param item: `CC(C)Sc1nc(NC2CC2)c(C#N)c(-c2ccccc2)n1` ; yields the recorded call inactive

Would you mind telling me which call this test gave `O=C(/C=C/c1cn(-c2ccccc2)nc1-c1ccc(Cl)cc1)c1cc2ccccc2oc1=O` ? inactive

Give the logged outcome of this assay for the following compound: `Cc1cc(O)c2c(c1)C(=O)C(c1c(C)cc3c(c1O)C(=O)C=CC3=O)=CC2=O` inactive

Entry `O=C(CN1CCN(c2cc(=O)n(-c3ccccc3)c3ccccc23)CC1)Nc1ccc([N+](=O)[O-])cc1` : call = ? inactive

# fetch the recorded call for `C=CCn1c(SCC(=O)Nc2ccc(OC)cc2)nnc1-c1ccc(Cl)cc1` here inactive

Which result was noted for this compound in the test: `CC(C)SC1=NC(=C(C(=N1)NC2=ClC=CC=C2)C#N)C3=CC=CC=C3` inactive

Tell me the assay call for `Cn1c2ccc(Br)cc2c2c3c(c4c5cc(F)ccc5oc4c21)C(=O)N(O)C3=O` please. inactive

Give the logged outcome of this assay for the following compound: `CCCCSc1nnc(-c2ccc(-c3ccc(Cl)cc3)nc2C)o1` inactive

Dear all, I need the recorded test outcome for `COc1ccccc1N1CCN(C2=NN=C(c3cccc(Cl)c3)c3ccccc3C2)CC1` , thank you. inactive

Check the results log: what was the call for `C/C(Cc1ccc(Cl)cc1)=C(/c1ccccc1)c1ccc(OCCN)cc1` ? inactive

I would be grateful if you could indicate the recorded call for `COc1ccc2c(C3=C(c4c[nH]c5ccccc45)C(=O)N(O)C3=O)coc2c1` . inactive

Any idea what this test logged for CC1CCc2c(sc3nc(SCC(=O)N/N=C/c4cccc(O)c4O)n(-c4ccccc4)c(=O)c23)C1 (stereo not drawn) ? inactive

In this assay, the call recorded for `O=C(Nc1cc(Cl)cc(Cl)c1)Nc1nc2ccc([N+](=O)[O-])cc2s1` was what? active

Any idea what this test logged for `C#C[C@]1(O)CC[C@H]2[C@@H]3CC=C4c5sc(Nc6cccc(C)n6)nc5CC[C@]4(C)[C@H]3CC[C@@]21C` ? inactive

# lookup: test call for `O=C1Nc2ccc(Cl)cc2/C1=C/c1ccc(OCc2ccc(F)cc2)cc1` inactive

Returns: the outcome recorded for `Cc1cn(-c2cc(NC(=O)c3cncc(C#Cc4cnc5ccc(O[C@@H]6CCOC6)nn45)c3)cc(C(F)(F)F)c2)cn1` in this assay. active

Which outcome was assigned to `Cc1nn(-c2ccc(Br)cc2)c2nc(CCl)[nH]c(=O)c12` in this test? inactive

Which outcome was entered for the compound `C/C(=N/Nc1nc(N/N=C(/C)c2ccc([N+](=O)[O-])cc2)nc(N2CCOCC2)n1)c1ccc([N+](=O)[O-])cc1` in this test? inactive
